Consider the following substances; for each one, report its % Biofilm inhibition.
Test system: methicillin resistant Staphylococcus aureus (MRSA) biofilm
Settings: approximate peptide concentration […] (around 3 μg/ml); compared to untreated samples
Ends that are not written are not given here.
Answers are plain numbers, in %.

Consider the worked cases shown below.
| substance | targetDesc | assayMetric | scaleUnit | experimentalResult |
| --- | --- | --- | --- | --- |
| 1002-I5: single substituted 1002 peptide (VQRWIIVWRIRK-NH2) [Peptide 1002-I5] | methicillin resistant Staphylococcus aureus (MRSA) biofilm | % Biofilm inhibition | % | 84 |
| HH2-K5: single substituted HH2 peptide (VQLRKRVAVIRA-NH2) | methicillin resistant Staphylococcus aureus (MRSA) biofilm | % Biofilm inhibition | % | 27 |
| HH2-G10: single substituted HH2 peptide (VQLRIRVAVGRA-NH2) | methicillin resistant Staphylococcus aureus (MRSA) biofilm | % Biofilm inhibition | % | 58 |
| HH2-G2: single substituted HH2 peptide (VGLRIRVAVIRA-NH2) | methicillin resistant Staphylococcus aureus (MRSA) biofilm | % Biofilm inhibition | % | 66 |

Then this substance:
q: What does the data say about its % Biofilm inhibition? Entry: HH2-L9: single substituted HH2 peptide (VQLRIRVALIRA-NH2)
a: 65
